molecular target: human 5-HT5A receptor (Homo sapiens (Human), UniProt P47898); assay: Test on a human 5-HT5A receptor binding inhibition ([3H]5-CT); conditions: [3H]5-CT binding, membrane from HEK293 cells expressing human 5-HT5A receptor; Ki calculated from IC50
Sequence (P47898 whole entry): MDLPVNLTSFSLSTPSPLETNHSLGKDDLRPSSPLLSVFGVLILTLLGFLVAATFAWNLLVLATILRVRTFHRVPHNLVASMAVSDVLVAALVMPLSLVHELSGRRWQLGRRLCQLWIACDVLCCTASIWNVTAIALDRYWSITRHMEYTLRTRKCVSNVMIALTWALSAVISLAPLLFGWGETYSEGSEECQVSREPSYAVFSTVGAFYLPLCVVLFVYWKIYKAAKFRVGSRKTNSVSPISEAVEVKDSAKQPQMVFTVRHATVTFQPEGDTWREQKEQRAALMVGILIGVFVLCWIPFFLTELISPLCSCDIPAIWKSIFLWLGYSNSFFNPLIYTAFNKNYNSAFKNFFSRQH
pKi: −log10 of the molar value.
OBSERVED_PROPERTY: pKi

Take a look at these entries with their results.
NC(N)=NC(=O)c1ccc2nccc(-c3cc(F)ccc3Cl)c2c1 7.00 to 8.00
NC(N)=NC(=O)c1ccc2ncc(Cl)c(-c3ccc(F)cc3)c2c1 8.00 to 9.00

Could you now look at the following compound, please?
Ask | In one line, give reported pKi of the entry Cc1cc(-c2ccc(F)cc2F)c2cc(C(=O)N=C(N)N)cc(C)c2n1 .
Reply | 8.00 to 9.00

* * *

biological target: UniProt:P47898; experiment: Test on a human 5-HT5A receptor binding inhibition ([3H]5-CT); settings: [3H]5-CT binding, membrane from HEK293 cells expressing human 5-HT5A receptor; Ki calculated from IC50
OBSERVED_PROPERTY: Ki

Take a look at these entries with their results.
COMPOUND	RESULT
NC(N)=NC(=O)c1ccc2c(Cl)cnc(-c3cc(F)c(F)cc3F)c2c1	10 to 100 nM
Cc1cc(C(=O)N=C(N)N)cc2c(C3CC3)c(Cl)cnc12	10 to 100 nM
COc1cccc(Cl)c1-c1ncc(F)c2ccc(C(=O)N=C(N)N)cc12	1 to 10 nM
NC(N)=NC(=O)c1ccc2ncc(Cl)c(C3=CCCCC3)c2c1	1 to 10 nM
NC(N)=NC(=O)c1ccc2nccc(-c3ccccc3)c2c1	10 to 100 nM

Could you now look at the following compound, please?
Ask | In one line, give reported Ki of the entry NC(N)=NC(=O)c1ccc2ncc(Cl)c(C3CC3)c2c1 .
Reply | 10 to 100 nM

* * *

molecular target: UniProt:P47898; assay: Test on a human 5-HT5A receptor binding inhibition ([3H]5-CT); details: [3H]5-CT binding, membrane from HEK293 cells expressing human 5-HT5A receptor; Ki calculated from IC50
Where a name gives a salt, the structure may show the parent alone.
# maps each entry to its Ki

Take a look at these entries with their results.
COMPOUND	ASSAY_SYSTEM	Ki
NC(N)=NC(=O)c1ccc2nc(C(F)(F)F)cc(-c3ccc(F)cc3F)c2c1	UniProt:P47898	100 to 300 nM
NC(N)=NC(=O)c1ccc2c(CO)cnc(-c3c(F)cc(F)cc3F)c2c1 [Example 2, fumarate]	UniProt:P47898	10 to 100 nM

Could you now look at the following compound, please?
Ask | Enter recorded Ki with UniProt:P47898 for NC(N)=NC(=O)c1cc(F)c2nccc(-c3c(F)cc(F)cc3F)c2c1 here.
Reply | 10 to 100 nM

* * *

target: human 5-HT5A receptor (Homo sapiens (Human), UniProt P47898); experiment: Test on a human 5-HT5A receptor binding inhibition ([3H]5-CT); conditions: [3H]5-CT binding inhibition, membrane from HEK293 cells expressing human 5-HT5A receptor; Ki calculated from IC50
OBSERVED_PROPERTY: Ki (nM)

Take a look at these entries with their results.
COMPOUND	Ki, nM
NC(N)=NC(=O)c1ccc2c(F)cnc(-c3ccccc3Cl)c2c1 [Example 161]	3.4
NC(N)=NC(=O)c1ccc2c(F)cnc(-c3c(F)cncc3Cl)c2c1 [Example 164]	4.7
NC(N)=NC(=O)c1ccc2c(Cl)cnc(-c3c(F)cccc3F)c2c1 [Example 162]	1.2
Cc1cc(-c2c(F)cc(F)cc2F)c2cc(C(=O)N=C(N)N)ccc2n1 [Example 6]	13
NC(N)=NC(=O)c1ccc2c(F)cnc(-c3c(F)cccc3F)c2c1 [Example 148]	1.4

1: NC(N)=NC(=O)c1ccc2ncc(Cl)c(-c3ccc(F)cc3F)c2c1 [Example 60]
2: NC(N)=NC(=O)c1ccc2c(F)cnc(-c3ncc(F)cc3Cl)c2c1 [Example 171]
Ask | # min-compare on Ki between 1 and 2 Field: selected label. Fill in the label of the entry you choose.
Reply | 1
(1: 1.3 nM, 2: 6.2 nM)

Where these numbers come from: patent US8853242B2
